B1: NR2F2 (parent)
chain: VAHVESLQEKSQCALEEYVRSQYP

Variants of: B1
Experiment: protein stability index of a GFP-peptide fusion (GPS, HEK-293T) (PSI 1-6); higher = more stable;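 note: lentivirally expressed fusions sorted by FACS into six bins by GFP to DsRed ratio, PSI derived from sequencing read proportions per bin multiplied by bin number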
Settings: c terminus: a fixed tail appended
Please go through the items and note down their protein stability index.
Hey, just send me the number, nothing else.

Task: May I ask what protein stability index has been recorded for Y18M ?
Result: 3.93

Task: Please give the measured protein stability index for this variant: P24E
Result: 3.94

Task: For the variant V4R , what protein stability index is on record?
Result: 4.06

Task: # get_value(readout='protein stability index', item= V4H )
Result: 4.06

Task: What value of measured protein stability index is listed for C13K ?
Result: 3.99
